target: T1, Full length human CD40 (huCD40) on cells (human, UniProt P25942 21-277); experiment: flow cytometry, HEK-Blue CD40L cells
T1 construct: CD40 on human mature DCs, human B cells, Raji cells and HEK-Blue CD40L cells (stably expressing human CD40); also called TNFRSF5
T1 sequence (P25942 21-277): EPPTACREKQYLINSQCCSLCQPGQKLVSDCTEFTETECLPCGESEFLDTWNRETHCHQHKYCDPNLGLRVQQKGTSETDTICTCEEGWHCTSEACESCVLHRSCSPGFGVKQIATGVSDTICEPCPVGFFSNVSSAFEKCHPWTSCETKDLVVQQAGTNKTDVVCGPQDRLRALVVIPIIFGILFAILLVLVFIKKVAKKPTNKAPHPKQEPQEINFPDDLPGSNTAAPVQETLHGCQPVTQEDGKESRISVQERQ
reportedMetric: EC50 (mg/L)
Please reply with the bare figure in mg/L and do not write the unit itself.

Task: Request the reported EC50 associated with C40M9 (antibody, human IgG1, lambda, V domains shown) VH: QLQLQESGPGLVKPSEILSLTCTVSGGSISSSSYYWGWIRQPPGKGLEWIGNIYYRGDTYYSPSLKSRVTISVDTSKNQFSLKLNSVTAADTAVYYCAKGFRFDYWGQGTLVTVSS VL: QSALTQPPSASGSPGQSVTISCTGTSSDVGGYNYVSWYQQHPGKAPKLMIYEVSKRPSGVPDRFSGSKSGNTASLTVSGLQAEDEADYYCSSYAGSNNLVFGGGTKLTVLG
Result: 0.143
